# target: DHFR from Pneumocystis carinii (PC) (Pneumocystis carinii, UniProt P16184)
# Sequence (P16184 1-206): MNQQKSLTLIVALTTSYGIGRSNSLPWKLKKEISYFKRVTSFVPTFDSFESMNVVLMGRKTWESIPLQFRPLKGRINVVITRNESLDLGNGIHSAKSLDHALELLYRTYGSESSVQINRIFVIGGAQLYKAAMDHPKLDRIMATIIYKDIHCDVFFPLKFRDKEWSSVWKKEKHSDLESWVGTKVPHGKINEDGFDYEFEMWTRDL
measure-name: IC50 (µM)
Numbers only, in µM.

Exam item: Please list IC50 recorded for the molecule Nc1nc(N)c(Sc2ccc(C(=O)O)cc2)c(=O)[nH]1
Marked response: 89.5

====

# target: dihydrofolate reductase (DHFR) from Toxoplasmosis gondii (Tx) (Toxoplasma gondii)
# experiment-summary: Inhibition of dihydrofolate reductase from Toxoplasmosis gondii (Tx DHFR)
# Type: biochemical
# condition: IC50 RL DHFR divided by IC50 Tx DHFR
Marks after values point to notes of the source that are not given here.
Hi there, I'd appreciate the recorded Selectivity Ratio: RL DHFR/Tx DHFR for every entry that follows.

Would you please look over these solved cases?
compound | target | recorded-result
Nc1nc(N)c(Sc2ccccn2)c(=O)[nH]1 [Compound 188] | dihydrofolate reductase (DHFR) from Toxoplasmosis gondii (Tx) (Toxoplasma gondii) | 24.9
Nc1nc(N)c(Sc2ccc([N+](=O)[O-])cc2)c(=O)[nH]1 [Compound 185] | dihydrofolate reductase (DHFR) from Toxoplasmosis gondii (Tx) (Toxoplasma gondii) | 55.6

Go through the items and report each one's Selectivity Ratio: RL DHFR/Tx DHFR.
1. Nc1nc(N)c(Sc2ccc(Cl)cc2)c(=O)[nH]1 [Compound 167]
2. COc1cccc(Sc2c(N)nc(N)[nH]c2=O)c1 [Compound 175]
3. Nc1nc(N)c(SCc2ccccc2Cl)c(=O)[nH]1 [Compound 197]

Marked response:
1: 90.0; 2: 92.1; 3: 3.7

Hey, quick one: what's Selectivity Ratio: RL DHFR/Tx DHFR for each of these?
1. Nc1nc(N)c(Sc2nc(-c3ccccc3)cs2)c(=O)[nH]1 [Compound 199]
2. Nc1nc(N)c(SCc2ccc(Cl)c(Cl)c2)c(=O)[nH]1 [Compound 190]
3. Nc1nc(N)c(Sc2c(Cl)cccc2Cl)c(=O)[nH]1 [Compound 176]

Marked response:
[4.3, 16.1, 10.3]

// for each compound in input: emit Selectivity Ratio: RL DHFR/Tx DHFR
1. Nc1nc(N)c(SCc2ccc(Cl)cc2)c(=O)[nH]1 [Compound 180]
2. COc1ccc(Sc2c(N)nc(N)[nH]c2=O)cc1OC [Compound 181]

Marked response:
1. >3.16#
2. >35.2#

====

Exercise: for every item that follows, state its recorded Selectivity Ratio: RL DHFR/Tx DHFR.
# target: dihydrofolate reductase (DHFR) from Toxoplasmosis gondii (Tx) (Toxoplasma gondii)
# Sequence (Q07422 1-610): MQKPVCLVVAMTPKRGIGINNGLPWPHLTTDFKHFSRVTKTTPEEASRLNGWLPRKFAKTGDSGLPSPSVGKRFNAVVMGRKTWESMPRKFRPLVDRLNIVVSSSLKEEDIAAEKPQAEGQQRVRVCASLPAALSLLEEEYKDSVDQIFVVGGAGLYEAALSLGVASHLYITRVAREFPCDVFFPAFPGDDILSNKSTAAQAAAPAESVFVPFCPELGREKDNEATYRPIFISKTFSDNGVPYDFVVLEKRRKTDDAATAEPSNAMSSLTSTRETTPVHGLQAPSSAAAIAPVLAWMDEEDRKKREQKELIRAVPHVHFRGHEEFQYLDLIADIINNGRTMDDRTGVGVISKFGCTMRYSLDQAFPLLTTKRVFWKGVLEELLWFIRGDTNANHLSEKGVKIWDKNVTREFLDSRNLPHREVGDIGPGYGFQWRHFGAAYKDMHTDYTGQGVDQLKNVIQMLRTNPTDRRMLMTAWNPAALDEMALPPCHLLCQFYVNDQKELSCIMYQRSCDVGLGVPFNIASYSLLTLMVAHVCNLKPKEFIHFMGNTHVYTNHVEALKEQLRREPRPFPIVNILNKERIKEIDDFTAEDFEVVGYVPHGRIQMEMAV
# experiment-summary: Inhibition of dihydrofolate reductase from Toxoplasmosis gondii (Tx DHFR)
# Type: biochemical
# condition: IC50 RL DHFR divided by IC50 Tx DHFR
# Method: The following examples are intended to illustrate the invention, and should not be construed as limiting the invention in any way. […] The compounds described in Table 1 were evaluated as inhibitors of dihydrofolate reductase (DHFR) from Toxoplasmosis gondii (Tx) and rat liver (RL). […] The selectivity ratio is a measure of the selectivity of a compound for Tx DHFR and is expressed as the IC50 value of the DHFR from rat liver (RL) divided by the IC50 value of the Tx DHFR. […]

Known Selectivity Ratio: RL DHFR/Tx DHFR results, listed for orientation:
smiles-text | measure-name | recorded-result
COc1ccc(OC)c(Sc2c(N)nc(N)[nH]c2=O)c1 | Selectivity Ratio: RL DHFR/Tx DHFR | 142.5
Nc1nc(N)c(SCc2ccccc2)c(=O)[nH]1 | Selectivity Ratio: RL DHFR/Tx DHFR | 7.7
COc1ccccc1Sc1c(N)nc(N)[nH]c1=O | Selectivity Ratio: RL DHFR/Tx DHFR | 45.3
Cc1ccc(CSc2c(N)nc(N)[nH]c2=O)cc1 | Selectivity Ratio: RL DHFR/Tx DHFR | 25.4

Exam item: Supply Selectivity Ratio: RL DHFR/Tx DHFR value. Item: Nc1nc(N)c(Sc2ccccc2Cl)c(=O)[nH]1
Marked response: 13.4

Reference source for all entries: patent US6423720B1
